System: HCT-116 colon
assay-procedure: NCI tumour cell line growth inhibition, 48 h
Task for the reader: assign each of the following molecules its reported TGI.

Fc1ccc2nc(-c3cc(-c4ccc5c(c4)OCO5)n[nH]3)[nH]c2c1 : > 32.5 µM
CCCCCCCCCCCCCC[n+]1cccc(C(N)=O)c1 : 3.97 µM
COc1ccc(C2Oc3c(c(O)cc4c3[C@H](c3ccc(O)cc3O)[C@H](O)C(c3ccc(O)c(O)c3)O4)C[C@@H]2O)cc1O (stereo not given in full) : > 100 µM
CC1=NN(C(=O)c2ccncc2)C(=O)C1N=Nc1ccc(F)cc1 (stereo not given) : > 100 µM
CC1(C)CC(C#Cc2ccccc2)CC(C)(C)N1O : 43.5 µM

For each of the molecules below, state TGI.
1. COc1ccc(N2C(=O)C3c4[nH]c5ccccc5c4C4CCCCCCCCCC4C3C2=O)cc1 (stereo not given)
2. O=C(O)CCCCCCCCC(=O)O
3. Cc1cccc(N=Nc2ccc(N=Nc3c(O)ccc4ccccc34)cc2C)c1
4. Cc1ccc(-n2nc(C(C)(C)C)cc2NC(=O)NCc2cc(F)ccc2Oc2ccc3c(cnn3CCO)c2)cc1
5. CC(=Nc1ccc(S(N)(=O)=O)cc1)c1c(O)[nH]c2ccccc12

1. > 10 µM
2. > 500 µM
3. > 100 µM
4. > 36.3 µM
5. > 25 µM

* * *

Tested on: IGROV1 ovarian
assay-procedure: NCI tumour cell line growth inhibition, 48 h
measure-name: TGI

Cc1cc(O)c(-c2cc(O)c(C)cc2O)cc1O : 25.9 µM
O=C1c2cccc3cccc(c23)C(=O)N1O : > 100 µM
Cc1cccc(N=Nc2ccc(N=Nc3c(O)ccc4ccccc34)cc2C)c1 : > 100 µM
COc1ccc(Nc2nccc(N3CCN(c4c5ccc(Cl)cc5nc5ccc(OC)cc45)CC3)n2)cc1 : > 100 µM
C[C@]12CC[C@@H]3c4ccc(O)cc4CC[C@H]3[C@@H]1C/C(=C\c1ccc(C#N)cc1)C2=O : > 100 µM
COc1ccc2c(NCCCCCCNc3c4ccccc4nc4cc(OC)ccc34)c3ccccc3nc2c1 : 0.339 µM
COC(=O)C1C(=O)N(CCc2c[nH]c3ccccc23)C[C@@H]2CCC(=O)C[C@H]12 (stereo partly drawn) : > 100 µM
CCCCCCC(C)CCCCCCCCCCC(=O)O (stereo not drawn) : > 100 µM

Kindly give each listed record's TGI.
1. Cc1ccc(C)c(N2C(=O)C(=O)C(c3nc4ccccc4s3)C(=Nc3cccc4c(=O)[nH][nH]c(=O)c34)C2=O)c1 (stereo not drawn)
2. COc1cc(C2c3cc4c(cc3[C@@H](Nc3ccc5c(c3)OCCO5)C3COC(=O)[C@H]23)OCO4)cc(OC)c1O (stereo partly drawn)
3. CN(C)c1ccc(Cc2cc3c(O)ccc(O)c3cc(Cc3ccc(N(C)C)cc3)c2=O)cc1
4. Fc1ccc2nc(-c3cc(-c4ccc5c(c4)OCO5)n[nH]3)[nH]c2c1
5. COc1cc(C(O)c2ccc3c(c2)OCO3)cc(OC)c1OC (stereo not drawn)
6. [2H]c1nc(=Nc2cc(NC(=O)C=C)c(N(C)CCN(C)C)cc2OC)[nH]c(-c2cn(C([2H])([2H])[2H])c3ccccc23)c1[2H]
7. COC(=O)C1(O)C(c2ccccc2)=NC2(C)CCCC21 (stereo not drawn)
8. COc1cccc2c1OCC1Cc3ccccc3OC21 (stereo not drawn)

["> 100 µM", "16.6 µM", "40.2 µM", "> 100 µM", "> 100 µM", "2.04 µM", "> 100 µM", "> 100 µM"]

For every item in the list below, what is its measured TGI?
1. O=C(CC(C(=O)c1ccco1)c1ccco1)c1ccco1 (stereo not drawn)
2. COc1cc2[nH]c(-c3ccccc3)cc(=O)c2c(OC)c1OC
3. Nc1cc(-c2ccc(Cl)cc2)nn1-c1nnc(/C=C/c2ccco2)c(=O)[nH]1
4. COc1ccc(Oc2cnn(C(Br)(Br)C(C)=O)c(=O)c2Br)cc1
5. COc1ccc(C2=C(N3CCc4ccccc43)C(=O)NC2=O)cc1
6. Cc1c2ccncc2c(C)c2c1[nH]c1ccc(O)c(OCC(F)(F)F)c12

1: > 100 µM; 2: > 100 µM; 3: 37.8 µM; 4: 42.8 µM; 5: > 25 µM; 6: 18.1 µM

Kindly give each listed record's TGI.
1. Nc1ccccc1C(=O)C(Br)C(Br)c1ccc2c(c1)OCO2 (stereo not drawn)
2. COc1cc(CNc2nc3ccc(C(F)(F)F)cc3nc2-c2ccccc2)cc(OC)c1OC
3. CC(C)=CCC[C@@H](C)C1=C(O)C(N)=C(C)C(=O)C1=O
4. CCOC(=O)c1c(SCCN2CCOCC2)n(-c2ccccc2)c(=S)n(-c2ccccc2)c1=O

["> 100 µM", "> 100 µM", "> 40.2 µM", "> 100 µM"]
